The values you see were collected from patent US9908886B2.

Molecular target: MNK1 (Homo sapiens, UniProt Q9BUB5)
Assay: In vitro MNK kinase assay (Caliper LabChip mobility shift)
Format: biochemical
Conditions: enzymatic, 1.2 mM ATP; read-out: IC50 Mnk1
Counter-ions that a name gives are not always drawn.
recordedEndpoint: IC50

Answer with reported IC50 of `CC1(N)CCN(C(=O)c2ccc(-c3ccc4ncc(-c5ccc(C#N)cc5)n4n3)cc2)CC1`
< 100 nM

Continuing:
Give a short answer stating reported IC50 for `CN1CCN(C(=O)c2ccc(-c3cn4c(-c5ccc(O)cc5)cnc4cn3)cc2)CC1` .
< 100 nM

Give a short answer stating reported IC50 for CC1(N)CCN(C(=O)c2ccc(-c3cn4c(-c5ccc(C#N)cc5)cnc4cn3)cc2)CC1 [Example 23, Hydrochloride Salt] .
< 1000 nM

Identify IC50 associated with the compound `N#Cc1ccc(-c2cnn3ccc(-c4ccc(C(=O)N5CCCOCC5)cc4)nc23)cc1`
< 100 nM

* * *

Biological target: MNK1 (Homo sapiens)
Assay: In vitro MNK kinase assay (Caliper LabChip mobility shift)
Assay type: biochemical
Conditions: enzymatic, 1.2 mM ATP; read-out: IC50 Mnk1
recordedEndpoint: IC50

Please review the entries below; each comes with its answer.
Provide IC50, recorded with MNK1 (Homo sapiens), of CC1(C)CCN(C(=O)c2ccc(-c3cn4c(-c5ccc(C(N)=O)cc5)cnc4cn3)cc2)CC1 [Example 3]
< 1000 nM

Consider the molecule N#Cc1ccc(-c2cnc3ccc(-c4ccc(C(=O)N5CCN(C(=O)c6ccccc6)CC5)cc4)cn23)cc1 [Example 126] tested on MNK1 (Homo sapiens); state its IC50.
< 100 nM

Jot down IC50 (MNK1 (Homo sapiens)) of CCN(CC)C1(C)CCN(C(=O)c2ccc(-c3ccc4ncc(-c5ccc(C#N)cc5)n4c3)cc2)CC1 [Example 100] .
< 100 nM

# lookup: MNK1 (Homo sapiens) IC50, key = N#Cc1ccc(-c2cnc3cnc(-c4ccc(C(=O)N5CCC(N)CC5)c(F)c4)cn23)cc1 [Example 29]
< 1000 nM

Others:
Using MNK1 (Homo sapiens) as the test system, report measured IC50 of CC(=O)N1CCN(C(=O)c2ccc(-c3ccn4ncc(-c5ccc(C#N)cc5)c4n3)cc2)CC1 [Example 184] .
< 100 nM

Write down the reported IC50 (system: MNK1 (Homo sapiens)) of COc1cc(C(=O)N2CCN(C)CC2)ccc1-c1ccc2ncc(-c3ccc(C#N)cc3)n2n1 [Example 78]
< 100 nM

Tell me its IC50 on MNK1 (Homo sapiens): N#Cc1ccc(-c2cnn3ccc(-c4ccc(C(=O)N5CCNCC5)cc4)nc23)cc1 [Example 183]
< 100 nM

* * *

Test system: K562 cells over-expressing eIF4E
Assay: Cell cytotoxicity assay (CellTiter-Glo)
Assay type: cell-based
Details: 6 days; read-out: IC50 after 6 days of treatment, K562
recordedEndpoint: IC50 (µM)
Number in µM, nothing else.

For the compound CC(=O)C1=C(O)C=C2Oc3c(C(N)=O)c(O)cc(O)c3[C@]2(C)C1=O [Cercosporamide, reference compound] , give its reported IC50.
4.3

* * *

Biological target: MNK2 (Homo sapiens (Human), UniProt Q9HBH9)
Sequence (Q9HBH9 84-388): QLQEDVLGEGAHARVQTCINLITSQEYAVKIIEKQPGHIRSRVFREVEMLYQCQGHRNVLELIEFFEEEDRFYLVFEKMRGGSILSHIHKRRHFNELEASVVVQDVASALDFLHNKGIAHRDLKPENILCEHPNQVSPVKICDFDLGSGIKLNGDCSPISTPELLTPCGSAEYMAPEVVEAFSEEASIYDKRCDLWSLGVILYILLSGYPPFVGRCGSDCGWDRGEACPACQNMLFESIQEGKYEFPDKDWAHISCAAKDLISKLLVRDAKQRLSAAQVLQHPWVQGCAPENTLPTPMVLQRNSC
Experiment: In vitro MNK kinase assay (Caliper LabChip mobility shift)
Type: biochemical
Conditions: enzymatic, 250 μM ATP; read-out: IC50 Mnk2
pIC50: −log10 of the molar value.
recordedEndpoint: pIC50

Supply pIC50 value. Item: CN1CCN(C(=O)c2ccc(-c3ccc4ncc(-c5ccc(C#N)cc5)n4n3)cc2Cl)CC1 [Example 72]
> 7.00

Provide one value: measured pIC50 of CN1CCN(C(=O)c2ccc(-c3ccc4ncc(-c5ccc(C#N)cc5)n4c3)cc2)CC1 [Example 95]
> 7.00

Provide pIC50 value for the following molecule: CNc1cc(-c2ccc3ncc(-c4ccc(C#N)cc4)n3c2)ccc1C(=O)N1CCOCC1 [Example 151]
> 7.00

Report pIC50, nothing else, for this molecule: CN1CCN(C(=O)c2ccc(-c3ccc4ncc(-c5ccc(C#N)cc5)n4c3)c(Cl)c2)CC1 [Example 153]
> 6.00

Find the measured pIC50 of CN1CCN(C(=O)c2ccc(-c3ccc4ncc(-c5ccc(C#N)cc5)n4n3)cc2)CC1=O [Example 69] and report it.
> 7.00

Others:
Give the value of pIC50 reported for the following: N#Cc1ccc(-c2cnn3ccc(-c4ccc(C(=O)N5CCOCC5)cc4)nc23)cc1 [Example 185]
> 7.00

Quick one: give measured pIC50 for N#Cc1ccc(-c2cnc3ccc(-c4ccc(C(=O)NCCN5CCOCC5)cc4)cn23)cc1 [Example 116]
> 6.00

Please report the measured pIC50 for CN1CCC(C2CCN(C(=O)c3ccc(-c4ccc5ncc(-c6ccc(C#N)cc6)n5c4)cc3)CC2)CC1 [Example 105]
> 7.00

* * *

Target: MNK2 (Homo sapiens (Human), UniProt Q9HBH9)
Assay: In vitro MNK kinase assay (Caliper LabChip mobility shift)
Assay type: biochemical
Conditions: enzymatic, 250 μM ATP; read-out: IC50 Mnk2
recordedEndpoint: IC50

Name the recorded IC50 of the compound listed here: CC1(O)CCN(C(=O)c2ccc(-c3ccc4ncc(-c5ccc(C#N)cc5)n4c3)cc2)CC1 [Example 106]
< 100 nM

Check the records and state IC50 for N#Cc1ccc(-c2cnc3ccc(-c4ccc(C(=O)NCC(=O)N5CCOCC5)cc4)cn23)cc1 [Example 115]
< 1000 nM

Give me measured IC50, please, for this compound: N#Cc1ccc(-c2cnc3ccc(-c4ccc(C(=O)N5CCCNCC5)cc4)cn23)cc1 [Example 107]
< 100 nM

Report IC50, nothing else, for this compound: CN(C)C1CCN(C(=O)c2ccc(-c3ccc4ncc(-c5ccc(C#N)cc5)n4c3)cc2)CC1 [Example 112]
< 100 nM

* * *

Test system: MV-4-11 cells
Test: Cell cytotoxicity assay (CellTiter-Glo)
Assay type: cell-based
Conditions: 48 hours; read-out: IC50 after 48 hours of treatment, MV-4-11
recordedEndpoint: IC50

Check the records and state IC50 for CC(=O)C1=C(O)C=C2Oc3c(C(N)=O)c(O)cc(O)c3[C@]2(C)C1=O [Cercosporamide, reference compound]
> 50 µM

* * *

Each entry below carries its recorded IC50.
Biological target: MNK2 (Homo sapiens (Human), UniProt Q9HBH9)
Test: In vitro MNK kinase assay (Caliper LabChip mobility shift)
Format: biochemical
Settings: enzymatic, 250 μM ATP; read-out: IC50 Mnk2

# return recorded IC50 for entry `CN(C)C1CCN(C(=O)c2ccc(-c3cn4c(-c5ccc(C#N)cc5)cnc4cn3)cc2)CC1`
< 1 µM

* * *

Reported pIC50 values follow for various compounds
Biological target: MNK2 (Homo sapiens (Human), UniProt Q9HBH9)
Assay: In vitro MNK kinase assay (Caliper LabChip mobility shift)
Assay type: biochemical
Conditions: enzymatic, 250 μM ATP; read-out: IC50 Mnk2
pIC50: −log10 of the molar value.

Answer with reported pIC50 of `N#Cc1ccc(-c2cnc3ccc(-c4ccc(C(=O)N5CCC(N)CC5)cc4)nn23)cc1`
> 7.00

Further cases:
Name the recorded pIC50 of the compound listed here: `CC(=O)N1CCN(C(=O)c2ccc(-c3ccn4ncc(-c5ccc(C#N)cc5)c4n3)cc2)CC1`
> 7.00

Recall and state the measured pIC50 for `COC1(C)CCN(C(=O)c2ccc(-c3ccc4ncc(-c5ccc(C#N)cc5)n4c3)cc2)CC1` .
> 7.00

Quote pIC50 reported for `Cc1cc2ncc(-c3ccc(C#N)cc3)n2cc1-c1ccc(C(=O)N2CCN(C)CC2)cc1` please.
> 6.00

Provide one value: measured pIC50 of `N#Cc1ccc(-c2cnc3cnc(-c4ccc(C(=O)N5CCC(N)CC5)c(F)c4)cn23)cc1`
> 6.00

Give pIC50 for the following compound: `N#Cc1ccc(-c2cnc3ccc(-c4ccc(C(=O)N5CCNC(=O)C5)cc4)nn23)cc1`
> 7.00

* * *

Target: MNK2 (Homo sapiens (Human), UniProt Q9HBH9)
Test: In vitro MNK kinase assay (Caliper LabChip mobility shift)
Assay type: biochemical
Conditions: enzymatic, 250 μM ATP; read-out: IC50 Mnk2
pIC50: −log10 of the molar value.
recordedEndpoint: pIC50

Sample answers from the record:
Lab note: record pIC50 of N#Cc1ccc(-c2cnc3cnc(-c4ccc(C(=O)N5CCC(N)CC5)c(Cl)c4)cn23)cc1 [Example 31] tested on MNK2 (Homo sapiens (Human), UniProt Q9HBH9).
> 6.00

Identify measured pIC50 obtained with MNK2 (Homo sapiens (Human), UniProt Q9HBH9) for CN1CCN(C(=O)c2ccc(-c3ccc4ncc(-c5ccc(C#N)cc5)n4c3)cc2OC(F)(F)F)CC1 [Example 157] .
> 6.00

Please look at N#Cc1ccc(-c2cnc3cnc(-c4ccc(C(=O)N5CCC6(CC5)COC6)cc4)cn23)cc1 [Example 24] and tell me its recorded pIC50 on MNK2 (Homo sapiens (Human), UniProt Q9HBH9).
> 6.00

Look up and report measured pIC50 (MNK2 (Homo sapiens (Human), UniProt Q9HBH9)) for the following molecule: N#Cc1ccc(-c2cnc3ccc(-c4ccc(C(=O)N5CCOCC5)c(N5CCOCC5)c4)cn23)cc1 [Example 160]
> 7.00

Report measured pIC50 on MNK2 (Homo sapiens (Human), UniProt Q9HBH9); entry: N#Cc1ccc(-c2cnc3cnc(-c4ccc(C(=O)N5CCOCC5)cc4)cn23)cc1 [Example 7]
> 6.00

Continuing:
Consider the molecule N#Cc1ccc(-c2cnc3ccc(-c4ccc(C(=O)N5CCC(N)CC5)cc4)cn23)cc1 [Example 109] tested on MNK2 (Homo sapiens (Human), UniProt Q9HBH9); state its pIC50.
> 7.00

Give MNK2 (Homo sapiens (Human), UniProt Q9HBH9) pIC50 for the following molecule: CN1CCN(C(=O)c2ccc(-c3cn4c(-c5ccc(O)cc5)cnc4cn3)cc2)CC1 [Example 1]
> 7.00

GET pIC50 where system = MNK2 (Homo sapiens (Human), UniProt Q9HBH9) and item = N#Cc1ccc(-c2cnn3ccc(-c4ccc(C(=O)N5CCNCC5)cc4)nc23)cc1 [Example 183]
> 7.00
